Form field: OD450 nm (one value per entry).
Target: T1, polypeptide GC3pep (human)
T1 construct: also called membrane proximal polypeptide GC3pep
T1 peptide: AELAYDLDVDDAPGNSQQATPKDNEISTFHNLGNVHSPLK
Assay: ELISA, GC3pep coated, antibody 1 nM;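 note: bound antibody detected with an HRP-conjugated secondary antibody and TMB substrate, reaction stopped with HCl, after 2 h binding at 37 °C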
The answer is to be given in OD450 nm; state only the numeric part.

{"binder": "F1.21.8 (antibody, human IgG1, kappa, V domains shown, human-murine chimeric antibody) VH: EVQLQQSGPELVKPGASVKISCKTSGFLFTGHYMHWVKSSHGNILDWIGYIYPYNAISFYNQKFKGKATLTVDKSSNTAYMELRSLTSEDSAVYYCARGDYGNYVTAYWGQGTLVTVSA VL: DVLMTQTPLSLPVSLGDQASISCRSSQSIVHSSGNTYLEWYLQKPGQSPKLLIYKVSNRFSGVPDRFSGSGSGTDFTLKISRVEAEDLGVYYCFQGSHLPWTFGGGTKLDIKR", "OD450 nm [OD450 nm]": 0.05}
{"binder": "F1.62.9 (antibody, human IgG1, kappa, V domains shown, human-murine chimeric antibody) VH: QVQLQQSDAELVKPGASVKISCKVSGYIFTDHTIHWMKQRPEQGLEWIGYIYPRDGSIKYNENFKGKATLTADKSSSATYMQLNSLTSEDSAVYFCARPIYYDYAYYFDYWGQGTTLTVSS VL: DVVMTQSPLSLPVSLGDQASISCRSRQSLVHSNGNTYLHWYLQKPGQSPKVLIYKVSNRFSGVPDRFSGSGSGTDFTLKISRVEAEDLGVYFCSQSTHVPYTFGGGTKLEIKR", "OD450 nm [OD450 nm]": 0.05}

Recorded result, F2.92.1 (antibody, human IgG1, kappa, V domains shown, human-murine chimeric antibody) VH: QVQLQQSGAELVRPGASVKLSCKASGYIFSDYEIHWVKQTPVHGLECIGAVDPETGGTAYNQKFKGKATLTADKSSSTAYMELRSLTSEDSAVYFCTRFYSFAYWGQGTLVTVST VL: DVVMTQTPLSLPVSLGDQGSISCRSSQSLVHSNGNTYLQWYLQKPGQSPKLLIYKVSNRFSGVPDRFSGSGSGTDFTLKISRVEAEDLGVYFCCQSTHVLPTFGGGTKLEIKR , OD450 nm: 1.92

Recorded result, F1.42.8 (antibody, human IgG1, kappa, V domains shown, human-murine chimeric antibody) VH: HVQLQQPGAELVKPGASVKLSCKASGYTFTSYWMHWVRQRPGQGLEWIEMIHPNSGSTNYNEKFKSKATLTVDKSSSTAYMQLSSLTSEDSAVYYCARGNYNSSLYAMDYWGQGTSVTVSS VL: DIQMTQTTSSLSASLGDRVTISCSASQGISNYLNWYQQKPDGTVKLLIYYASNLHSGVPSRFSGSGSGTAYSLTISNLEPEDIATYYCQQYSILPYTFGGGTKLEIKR , OD450 nm: 0.05

Recorded result, F2.154.1 (antibody, human IgG1, kappa, V domains shown, human-murine chimeric antibody) VH: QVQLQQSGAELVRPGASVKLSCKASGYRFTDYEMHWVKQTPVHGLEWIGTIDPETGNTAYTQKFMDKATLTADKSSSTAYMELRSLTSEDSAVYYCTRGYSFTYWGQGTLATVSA VL: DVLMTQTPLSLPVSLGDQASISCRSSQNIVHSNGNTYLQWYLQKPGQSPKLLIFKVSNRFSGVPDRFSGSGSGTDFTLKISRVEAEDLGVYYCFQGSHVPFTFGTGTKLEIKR , OD450 nm: 2.29

These measurements were taken from patent US20260116991A1.
